molecular target: chemokine receptor 5 (CCR5) (human, UniProt P51681 1-352); test: cell-based or functional assay
Sequence (P51681 whole entry): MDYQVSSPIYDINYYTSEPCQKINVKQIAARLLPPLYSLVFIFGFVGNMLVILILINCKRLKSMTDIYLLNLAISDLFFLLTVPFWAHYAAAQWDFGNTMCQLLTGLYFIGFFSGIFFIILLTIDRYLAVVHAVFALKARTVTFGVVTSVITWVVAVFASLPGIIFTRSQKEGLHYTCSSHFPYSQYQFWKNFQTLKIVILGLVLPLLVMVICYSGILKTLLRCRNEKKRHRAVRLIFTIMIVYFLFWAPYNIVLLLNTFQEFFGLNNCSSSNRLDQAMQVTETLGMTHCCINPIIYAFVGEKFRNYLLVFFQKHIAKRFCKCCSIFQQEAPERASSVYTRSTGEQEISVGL
Reported EC50 (aequorin luminescence, CHO-K1 cells expressing CCR5) values for a set of binders
Please state the figure in nM; there is no need to write the unit.

BINDER	ASSAY_VALUE
HCC-1[7-74] (ligand, Synthetic, oxidatively folded) SRGPYHPSECCFTYTTYKIPRQRIMDYYETNSQCSKPGIVFITKRGHSVCTNPSDKWVQDYIKDMKEN	165
processed human chemokine PHC-1 (HCC-1[9-74]) (ligand, Purified from human hemofiltrate or made by tryptic digestion of HCC-1 (1-74)) GPYHPSECCFTYTTYKIPRQRIMDYYETNSQCSKPGIVFITKRGHSVCTNPSDKWVQDYIKDMKEN	6.45
RANTES (ligand, UniProt P13501 24-91, looked up, ends and bridges not checked; also: 125I-labelled where used as tracer, unlabelled in functional assays) SPYSSDTTPCCFAYIARPLPRAHIKEYFYTSGKCSNPAVVFVTRKNRQVCANPEKKWVREYINSLEMS	8.48

### Prompt Form field: reported EC50 (aequorin luminescence, CHO-K1 cells expressing CCR5) of HCC-1[8-74] (ligand, Synthetic, oxidatively folded) RGPYHPSECCFTYTTYKIPRQRIMDYYETNSQCSKPGIVFITKRGHSVCTNPSDKWVQDYIKDMKEN
### Response 177

### Prompt Entry HCC-1[10-74] (ligand, Synthetic, oxidatively folded) PYHPSECCFTYTTYKIPRQRIMDYYETNSQCSKPGIVFITKRGHSVCTNPSDKWVQDYIKDMKEN please
### Response 3.48

These entries and their values trace back to patent US20030158387A1.
